Biological target: Prostaglandin G/H synthase 1 (Ovis aries)
Sequence (P05979 whole entry): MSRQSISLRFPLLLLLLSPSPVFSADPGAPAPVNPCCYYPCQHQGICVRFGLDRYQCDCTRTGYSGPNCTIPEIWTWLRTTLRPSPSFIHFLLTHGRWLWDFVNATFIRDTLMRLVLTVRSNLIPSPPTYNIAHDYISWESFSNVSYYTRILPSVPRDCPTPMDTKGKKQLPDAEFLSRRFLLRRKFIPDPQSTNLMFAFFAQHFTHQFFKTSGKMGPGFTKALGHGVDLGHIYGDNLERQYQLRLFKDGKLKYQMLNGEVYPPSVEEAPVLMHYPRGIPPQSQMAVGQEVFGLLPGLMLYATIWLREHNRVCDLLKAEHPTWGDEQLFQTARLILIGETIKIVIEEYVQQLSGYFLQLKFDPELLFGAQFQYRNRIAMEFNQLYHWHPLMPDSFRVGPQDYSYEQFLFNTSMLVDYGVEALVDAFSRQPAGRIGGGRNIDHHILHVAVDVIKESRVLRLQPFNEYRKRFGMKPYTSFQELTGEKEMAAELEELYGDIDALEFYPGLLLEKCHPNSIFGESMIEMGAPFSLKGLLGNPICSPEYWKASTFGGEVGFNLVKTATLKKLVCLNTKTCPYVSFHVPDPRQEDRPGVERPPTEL
pIC50: −log10 of the molar value.
We begin with a simple list: items and their reported pIC50.

Sample N#Cc1ccc(C(=O)/C=C/c2c[nH]c3ccc(Cl)cc23)cc1 , system: Prostaglandin G/H synthase 1 (Ovis aries). Its pIC50 is < 4.49

Sample COc1ccc2[nH]cc(/C=C/C(=O)c3ccc(S(C)(=O)=O)cc3)c2c1 , system: Prostaglandin G/H synthase 1 (Ovis aries). Its pIC50 is 4.62

Sample CC(=O)Nc1ccc(C(=O)/C=C/c2cn(C)c3ccccc23)cc1 , system: Prostaglandin G/H synthase 1 (Ovis aries). Its pIC50 is < 4.50
